Target: T1, human ASGR-1 (wild type) (human, UniProt P07306 1-291)
T1 construct: also called wt ASGR1; huASGR-1
T1 sequence: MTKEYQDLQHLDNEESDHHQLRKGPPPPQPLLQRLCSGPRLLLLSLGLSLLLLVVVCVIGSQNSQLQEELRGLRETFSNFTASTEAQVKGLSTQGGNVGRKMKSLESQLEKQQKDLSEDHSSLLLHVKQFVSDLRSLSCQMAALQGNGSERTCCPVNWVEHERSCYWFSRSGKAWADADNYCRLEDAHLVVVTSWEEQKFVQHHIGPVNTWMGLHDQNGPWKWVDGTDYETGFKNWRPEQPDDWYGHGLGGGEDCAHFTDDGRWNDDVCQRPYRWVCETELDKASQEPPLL
Assay: FACS, transfected CHO-S cells, mAb 5 ug/ml
assayReadout: FACS Binding Geomean

1. 7G4 (antibody, V domains shown, mAb) VH: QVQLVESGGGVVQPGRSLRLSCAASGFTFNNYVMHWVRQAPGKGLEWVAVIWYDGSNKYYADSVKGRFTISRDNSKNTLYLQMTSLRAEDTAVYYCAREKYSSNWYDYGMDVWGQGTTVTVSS VL: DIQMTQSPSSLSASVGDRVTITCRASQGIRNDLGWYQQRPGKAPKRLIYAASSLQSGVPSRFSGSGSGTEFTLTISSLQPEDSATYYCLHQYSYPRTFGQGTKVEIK
48500
2. 53F7 (antibody, V domains shown, mAb) VH: QVQLVQSGAEVKKPGASVKVSCKASGYTFTGYHMHWVRQAPGQGLEWMGWINPNNNGTNYAQKFQGRVTMTRDTSISTAYMELNRLTSDDTAVYYCARDGTSSFDYWGQGTLVTVSS VL: DIQMSQSPSSVSASVGDRVTITCRASQGISRWLAWYQQKPGKAPNLLIYAASSLQSGVPSRFSGSGSGTDFTLTISSLQPEDFAIYYCQQANSFPFTFGPGTKVDIK
43500
3. 60D2 (antibody, V domains shown, mAb) VH: EVQLVESGGGLVQPGGSLRLSCGASGFTFSSYSMNWVRQAPGKGLEWVSYISESSNIIYYTDSVKGRFTISRDNAMNSLYLQMNSLRDEDTAVYYCARADTPMVLYFYGMDVWGQGTTVTVSS VL: SYELTQPPSVSVSPGQTASITCSGNKLGDKYASWYQQRPGQSPVLVIYQDNKRPSGIPERFSGSNSGNTATLTISGTQTMDEADYYCQAWDNNTVVFGGGTKLTVL
29600
